- assay_name: CREB reporter modulators without forskolin, primary screen, cell-based, PC12, CRE-LacZ reporter, unstimulated (AID 1145)
- particulars: no forskolin, luminescence, 4.5 h, called active from +8 up or from −8 down
Calls of active or inactive are those of the source.
Assign a class; possible classes are Y (active), N (inactive)

Dear colleague, could you share the recorded outcome for `C[C@@H](c1ccccc1)N1C(=O)[C@H]2[C@H]3[C@H](O)[C@H](O)CC(=NOCc4ccccc4)[C@@H]3CC[C@H]2C1=O` when you have a moment?
N

Okay, and `CC(C)=CCCC(C)=CCON=C1C[C@@H](O)[C@@H](O)[C@@H]2[C@@H]3C(=O)N(Cc4ccc5c(c4)OCO5)C(=O)[C@@H]3CC[C@H]12` ?
N

Okay, and COC(=O)[C@H](C)NC(=O)CCC1CC(OC(=O)NCc2ccc3c(c2)OCO3)CC2(CCCC(COC(=O)NCCCN3CCCC3=O)O2)O1 (stereo not given in full) ?
N

Okay, and `CCOC(=O)NN=C1C[C@@H](O)[C@@H](O)[C@@H]2[C@@H]3C(=O)N(CC)C(=O)[C@@H]3CC[C@H]12` ?
N

Okay, and `CCN1C(=O)[C@H]2[C@H]3[C@H](O)[C@H](O)CC(=NOCC(C)C)[C@H]3CC[C@H]2C1=O` ?
N

Okay, and `CCOC(=O)CCN1C(=O)[C@H]2[C@H]3[C@H](O)[C@H](O)CC(=NO[C@@H]4O[C@H](CO)[C@@H](O)[C@H](O)[C@H]4O)[C@H]3CC[C@H]2C1=O` ?
N

Okay, and `C#CCCCON=C1C[C@@H](O)[C@@H](O)[C@@H]2[C@@H]3C(=O)N(C[C@@H]4CCCO4)C(=O)[C@@H]3CC[C@H]12` ?
N

Okay, and O=C1CCCC=C1C(O)c1ccc([N+](=O)[O-])cc1 (stereo not given) ?
N

Okay, and `O=C1[C@H]2[C@H]3[C@H](O)[C@H](O)CC(=NO[C@@H]4O[C@H](CO)[C@@H](O)[C@H](O)[C@H]4O)[C@H]3CC[C@H]2C(=O)N1C[C@@H]1CCCO1` ?
N

Okay, and `C[C@H]1CC[C@@H](C(=O)O)N[C@@H]1c1ccc(C#Cc2ccccc2)cc1` ?
N

Okay, and `CC(=O)OC[C@H]1O[C@H](CC=NO[C@@H](C)c2cn([C@H](CO)Cc3ccccc3)nn2)C=C[C@@H]1OC(C)=O` ?
N

Okay, and `C[C@@H]1CC[C@H]2C(=O)O[C@@H](CN=[N+]=[N-])CN2[C@H]1c1ccc(Br)cc1` ?
N

Okay, and `COc1ccc2c(c1)O[C@@H](c1cccc(C(F)(F)F)c1)[C@H](O)C2=O` ?
N

Okay, and `C#CCCCON=C1C[C@@H](O)[C@@H](O)[C@@H]2[C@@H]3C(=O)N(CC)C(=O)[C@@H]3CC[C@H]12` ?
N

Okay, and `COCOc1ccc(Br)cc1C(=O)C=Cc1ccc2c(c1)OCO2` ?
Y

Okay, and `CCN1C(=O)[C@H]2[C@H]3[C@H](O)[C@H](O)CC(=NO[C@@H]4O[C@H](COC(C)=O)[C@@H](OC(C)=O)[C@H](OC(C)=O)[C@H]4OC(C)=O)[C@@H]3CC[C@H]2C1=O` ?
N

Okay, and C[C@@H]1CC[C@H]2C(=O)OC(Cc3ccccc3)CN2[C@H]1c1ccc(Br)cc1 (stereo not given in full) ?
N

Okay, and `O=C1[C@H]2[C@H]3[C@H](O)[C@H](O)CC(=NOC[C@@H](O)COCc4ccco4)[C@@H]3CC[C@H]2C(=O)N1Cc1ccc2c(c1)OCO2` ?
N

Okay, and `C[C@H]1CC[C@H]2C(=O)N[C@H](Cc3ccccc3)C(=O)N2[C@@H]1c1ccccc1` ?
N

Okay, and CCN(CC)CC(O)CN1CCCCc2nc(C)c(C)cc21 (stereo not given) ?
N

Okay, and `CCN1C(=O)[C@H]2[C@H]3[C@H](O)[C@H](O)CC(=NOC[C@@H](O)[C@H]4O[C@@H]5OC(C)(C)O[C@@H]5[C@H]4O)[C@@H]3CC[C@H]2C1=O` ?
N

----------
- Tested on: XIP peptide (Xip251-270) binding
- assay_name: small-molecule binders of XIP peptide, primary screen, biochemical, small-molecule microarray, fluorescence 635/667 nm, 0.1 µg/mL protein (AID 1182)
- particulars: fluorescent protein binding, 635 nm, higher = more signal, called active from +8 up or from −8 down
measure_name: composite z-score
Field format: numeric only.

Example compounds with recorded composite z-score:
Consider the compound `C=CC[C@@H]1C=C[C@H](ON=CC[C@@H]2C=C[C@H](OC(C)=O)[C@@H](COC(C)=O)O2)[C@@H](CO)O1` and give its measured composite z-score.
0.571

Okay, and `CC(=O)OC[C@H]1O[C@H](C#CCC2CCCCC2)C=C[C@@H]1OC(C)=O` ?
0.525

Okay, and `O=C(NN=C1C[C@@H](O)[C@@H](O)[C@@H]2[C@@H]3C(=O)N(c4ccc(F)cc4F)C(=O)[C@@H]3CC[C@H]12)OCc1ccccc1` ?
0.081

Next compound, please.
Consider the compound `COc1ccc(COC(=O)NN=C2C[C@@H](O)[C@@H](O)[C@@H]3[C@@H]4C(=O)N(C5CCCCC5)C(=O)[C@@H]4CC[C@@H]23)cc1` and give its measured composite z-score.
0.524

----------
- assay_name: binders of probe aFGF2 on microarray, primary screen, stem cell growth factor project, biochemical, small-molecule microarray, fluorescence 635/667 (AID 1067);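 also: measures binding of biotinylated aFGF2 protein to printed compounds on slides; z-score merges feature fluorescence and signal-to-noise across triplicate slides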
- particulars: higher = more signal
Below: a set of entries, each annotated with reported composite z-score.
Field format: numeric only.

Consider the molecule `COc1ccc2c(c1)O[C@@H](c1cccc(C(F)(F)F)c1)[C@H](O)C2=O` and give its measured composite z-score.
-0.131

Okay, and CCOC(=O)[C@H](Cc1ccccc1)NC(=O)CCC1CC(OC(=O)NCc2cccc3ccccc23)CC2(CCCC(COC(=O)NCCc3ccccc3OC)O2)O1 (some centres undefined) ?
-0.0538

Okay, and `O=C1C2=CC[C@H]3C(=O)N(c4ccc(F)cc4F)C(=O)[C@H]3[C@H]2[C@H](O)[C@@H]2O[C@H]12` ?
-0.116

Next molecule, please.
Consider the molecule `CC(C)(C)N1C(=O)[C@H]2[C@@H]3C(=CC[C@H]2C1=O)C(=O)[C@H]1O[C@H]1[C@H]3O` and give its measured composite z-score.
-0.226

----------
- assay_name: mitochondrial membrane potential change in A549 cells, profiling panel, cell-based, JC-1 fluorescence, basal, 24 h, 100 nL (AID 1138);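 also: A549 lung adenocarcinoma cells under basal conditions with no added stimulus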
- particulars: higher = more signal
Below: a set of entries, each annotated with reported z-score.

Consider the compound `CC(=O)OC[C@H]1O[C@@H](ON=C(C)C)[C@H](OC(C)=O)[C@@H](OC(C)=O)[C@@H]1OC(C)=O` and give its measured z-score.
-0.191

Okay, and `O=C1C=C[C@@H](O)[C@@H]2[C@@H]3C(=O)N(c4cccc(Oc5ccccc5)c4)C(=O)[C@@H]3CC[C@@H]12` ?
-0.774

Okay, and `COC(=O)CC=C1c2ccccc2[C@H](OC)[C@H]1C` ?
-0.612

Okay, and `C#CCCCON=C1[C@H]2CCn3c(=O)n(Cc4cc5c(cc4Cl)OCO5)c(=O)n3[C@H]2[C@H](O)[C@@H]2O[C@H]12` ?
0.146

More entries:
Consider the compound `COc1ccc(-c2cnnc(CCCn3ccnc3-c3ccccc3)n2)cc1` and give its measured z-score.
0.787

----------
Below: a set of entries, each annotated with reported composite z-score.
- assay_name: small-molecule microarray binders of probe aEGFR, primary screen, biochemical, biotinylated probe, 635/667 nm fluorescence (AID 1097);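 also: probe is a biotinylated anti-EGFR antibody binding compounds printed on slides; score combines fluorescence near 667 nm and signal to noise of each spot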
- particulars: higher = more signal

Example molecules with recorded composite z-score:
Consider the molecule `CO[C@@H]1C=CCC(=O)N[C@@H](C)C(=O)OC[C@@H](OC)[C@H](C)C=CCC(=O)OC[C@H]1C` and give its measured composite z-score.
-0.0357

Okay, and `C[C@@H]1CC[C@@H](C(=O)O)N[C@H]1c1cccc(N2CCOCC2)c1` ?
-0.106

More entries:
Consider the molecule `CC(CCN1CCCCc2nc(C)c(C)cc21)=NOC[C@@H](O)[C@H]1O[C@@H]2OC(C)(C)O[C@@H]2[C@H]1O` and give its measured composite z-score.
-0.0179

Okay, and `COc1ccc(O[C@H]2C=C[C@@H](c3ccccc3)O[C@@H]2CON=C(C)CCN2CCCc3nc(C)c(C)cc32)cc1` ?
-0.0531

----------
Below: a set of entries, each annotated with reported z-score.
- assay_name: splicing luciferase reporter signal modulators, primary screen, spliceosome inhibition project, cell-based, HEK293, splice +/- reporter (AID 1101);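 also: HEK293 cells carrying a splicing-competent luciferase reporter gene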
- particulars: luminescence, 24 h, higher = more signal, called active from +8 up or from −8 down
Field format: numeric only.

Example molecules with recorded z-score:
Consider the molecule `CO[C@@H]1COC(=O)[C@H](CCSC)NC(=O)CC=C[C@@H](C)COC(=O)[C@@H]2CCCN2C(=O)CC=C[C@H]1C` and give its measured z-score.
-0.595

Okay, and `O=C1C=C[C@@H](O)[C@@H]2[C@@H]3C(=O)N(c4cccc(Oc5ccccc5)c4)C(=O)[C@@H]3CC[C@@H]12` ?
-0.856

Okay, and `COC(=O)CC=C[C@@H](C)[C@@H](C=NOC[C@@H](C)[C@H](OCc1ccccc1)C(C)C)OC` ?
-0.201

More entries:
Consider the molecule CCOC(=O)[C@H](Cc1ccccc1)NC(=O)CCC1CC(OC(=O)NCc2cccc3ccccc23)CC2(CCCC(COC(=O)NCCOc3ccccc3)O2)O1 (some centres not stated) and give its measured z-score.
-1.82

Okay, and `O=C1[C@H]2[C@H]3[C@H](O)[C@H](O)CC(=NOC[C@@H](O)COCc4ccco4)[C@@H]3CC[C@H]2C(=O)N1c1cccc(Oc2ccccc2)c1` ?
-0.33

Okay, and `CC(=O)OC[C@H]1O[C@@H](ON=C(C)CCN2CCCCc3nc(C)c(C)cc32)[C@H](OC(C)=O)[C@@H](OC(C)=O)[C@@H]1OC(C)=O` ?
-1.29

Okay, and `CON(C)C(=O)c1nnc2c(n1)[nH]c1ccccc12` ?
-0.562
